target: Ephrin type-B receptor 4 (Homo sapiens, UniProt P54760)
Sequence (P54760 whole entry): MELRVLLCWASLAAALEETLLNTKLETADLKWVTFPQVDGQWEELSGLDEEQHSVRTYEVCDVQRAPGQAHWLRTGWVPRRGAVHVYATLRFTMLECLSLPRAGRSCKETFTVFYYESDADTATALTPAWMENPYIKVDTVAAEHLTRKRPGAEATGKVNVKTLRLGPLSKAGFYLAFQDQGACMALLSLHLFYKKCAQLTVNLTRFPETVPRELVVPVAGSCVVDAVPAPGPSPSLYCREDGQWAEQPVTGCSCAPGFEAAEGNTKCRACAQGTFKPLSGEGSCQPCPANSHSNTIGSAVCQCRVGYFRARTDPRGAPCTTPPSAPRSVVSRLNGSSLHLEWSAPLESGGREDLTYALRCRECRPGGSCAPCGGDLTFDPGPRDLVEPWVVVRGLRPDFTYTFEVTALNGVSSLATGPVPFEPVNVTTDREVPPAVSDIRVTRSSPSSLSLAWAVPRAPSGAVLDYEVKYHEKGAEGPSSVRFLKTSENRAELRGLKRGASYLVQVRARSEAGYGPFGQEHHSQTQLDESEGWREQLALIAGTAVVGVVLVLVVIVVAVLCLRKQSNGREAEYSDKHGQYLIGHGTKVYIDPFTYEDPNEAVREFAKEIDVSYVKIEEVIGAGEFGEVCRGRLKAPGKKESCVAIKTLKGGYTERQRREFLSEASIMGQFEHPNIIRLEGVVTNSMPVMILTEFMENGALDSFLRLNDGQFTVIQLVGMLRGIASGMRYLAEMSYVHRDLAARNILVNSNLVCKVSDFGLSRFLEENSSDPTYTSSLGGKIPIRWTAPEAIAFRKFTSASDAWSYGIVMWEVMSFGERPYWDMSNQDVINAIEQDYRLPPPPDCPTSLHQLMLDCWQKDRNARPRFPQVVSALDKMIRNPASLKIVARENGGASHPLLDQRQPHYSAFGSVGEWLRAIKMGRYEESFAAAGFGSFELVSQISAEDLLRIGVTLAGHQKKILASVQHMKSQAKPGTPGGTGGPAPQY
Quantity Kind: IC50 (nM)

{"Test Smiles": "CC(=O)Nc1cn2cc(-c3cc(NC(=O)c4cccc(C(F)(F)F)c4)ccc3C)ccc2n1", "Quantity Kind": "IC50", "Result Number": 150}

----------
molecular target: Serine/threonine-protein kinase B-raf (Homo sapiens, UniProt P15056, V600E); assay: Inhibition of recombinant C-terminal his6-tagged B-Raf (437 to 765 residues) V600E mutant (unknown origin) catalytic domain expressed in baculovirus infected Sf21 insect cells using biotinylated Mek substrate preincubated for 60 mins measured after 3 hrs by amplified luminescence proximity homogeneous assay
Sequence (P15056 2-766 V600E limits assumed): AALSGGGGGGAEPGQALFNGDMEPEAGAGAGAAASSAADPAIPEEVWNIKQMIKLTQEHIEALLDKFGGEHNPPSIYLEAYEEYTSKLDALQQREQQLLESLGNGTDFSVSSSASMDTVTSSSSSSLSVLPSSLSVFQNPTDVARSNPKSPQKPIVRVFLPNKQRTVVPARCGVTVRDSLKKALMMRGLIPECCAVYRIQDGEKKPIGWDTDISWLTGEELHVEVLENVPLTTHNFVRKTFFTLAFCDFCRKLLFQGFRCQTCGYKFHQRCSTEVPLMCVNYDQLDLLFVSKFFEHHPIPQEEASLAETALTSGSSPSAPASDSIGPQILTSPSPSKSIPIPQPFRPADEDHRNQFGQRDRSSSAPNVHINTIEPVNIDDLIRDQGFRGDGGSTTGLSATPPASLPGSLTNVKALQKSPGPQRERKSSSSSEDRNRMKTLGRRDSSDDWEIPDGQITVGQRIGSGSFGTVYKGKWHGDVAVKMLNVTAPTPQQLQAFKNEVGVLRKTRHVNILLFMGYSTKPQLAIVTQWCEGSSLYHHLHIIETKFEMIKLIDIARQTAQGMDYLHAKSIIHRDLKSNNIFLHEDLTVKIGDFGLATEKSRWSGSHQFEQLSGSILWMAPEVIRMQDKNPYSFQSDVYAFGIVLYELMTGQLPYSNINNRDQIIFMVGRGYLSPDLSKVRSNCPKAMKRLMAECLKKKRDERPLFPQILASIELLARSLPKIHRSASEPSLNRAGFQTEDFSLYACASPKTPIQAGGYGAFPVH
pIC50: −log10 of the molar value.
Is pIC50 at least 9? Then Met. If not, Not met.

{"Test Smiles": "CC(=O)Nc1cn2cc(-c3cc(NC(=O)c4ccccc4)ccc3C)ccc2n1", "Assigned Class": "Not met"}
{"Test Smiles": "CC(=O)Nc1cn2cc(-c3cc(NC(=O)c4ccc(CN5CCN(C)CC5)c(C(F)(F)F)c4)ccc3C)ccc2n1", "Assigned Class": "Not met"}
{"Test Smiles": "CC(=O)Nc1cn2cc(-c3cc(NC(=O)c4cccc(C(F)(F)F)c4)ccc3C)ccc2n1", "Assigned Class": "Met"}
{"Test Smiles": "CC(=O)Nc1cn2cc(-c3cc(NC(=O)c4cccc(C(F)(F)F)n4)ccc3C)ccc2n1", "Assigned Class": "Not met"}
{"Test Smiles": "CC(=O)Nc1cn2cc(-c3cc(NC(=O)c4cccc(Cl)c4)ccc3C)ccc2n1", "Assigned Class": "Met"}
{"Test Smiles": "CC(=O)Nc1cn2cc(-c3cc(NC(=O)c4cccc(C(C)(C)C)c4)ccc3C)ccc2n1", "Assigned Class": "Met"}
{"Test Smiles": "CC(=O)Nc1cn2cc(-c3cc(NC(=O)c4cc(N5CCN(C)C[C@@H]5C)cc(C(F)(F)F)c4)ccc3C)ccc2n1", "Assigned Class": "Not met"}

----------
molecular target: Serine/threonine-protein kinase B-raf (Homo sapiens, UniProt P15056, V600E); test: Inhibition of B-Raf V600E mutant in human A375 cells assessed as reduction in ERK phosphorylation; assay type: cell-based
pEC50: −log10 of the molar value.
Quantity Kind: pEC50

{"Test Smiles": "CC(=O)Nc1cn2cc(-c3cc(NC(=O)c4cccc(C(F)(F)F)n4)ccc3C)ccc2n1", "Measured Target": "Serine/threonine-protein kinase B-raf (Homo sapiens, UniProt P15056, V600E)", "Result Operator": "<", "Result Number": 5.00}
{"Test Smiles": "CC(=O)Nc1cn2cc(-c3cc(NC(=O)c4cccc(C(F)(F)F)c4)ccc3C)ccc2n1", "Measured Target": "Serine/threonine-protein kinase B-raf (Homo sapiens, UniProt P15056, V600E)", "Result Operator": "=", "Result Number": 6.64}
{"Test Smiles": "CC(=O)Nc1cn2cc(-c3cc(NC(=O)c4cc(N5CCN(C)C[C@@H]5C)cc(C(F)(F)F)c4)ccc3C)ccc2n1", "Measured Target": "Serine/threonine-protein kinase B-raf (Homo sapiens, UniProt P15056, V600E)", "Result Operator": "=", "Result Number": 6.62}
{"Test Smiles": "CC(=O)Nc1cn2cc(-c3cc(NC(=O)c4cccc(Cl)c4)ccc3C)ccc2n1", "Measured Target": "Serine/threonine-protein kinase B-raf (Homo sapiens, UniProt P15056, V600E)", "Result Operator": "=", "Result Number": 6.32}
{"Test Smiles": "CC(=O)Nc1cn2cc(-c3cc(NC(=O)c4cccc(C(C)(C)C)c4)ccc3C)ccc2n1", "Measured Target": "Serine/threonine-protein kinase B-raf (Homo sapiens, UniProt P15056, V600E)", "Result Operator": "=", "Result Number": 7.60}
{"Test Smiles": "CC(=O)Nc1cn2cc(-c3cc(NC(=O)c4ccccc4)ccc3C)ccc2n1", "Measured Target": "Serine/threonine-protein kinase B-raf (Homo sapiens, UniProt P15056, V600E)", "Result Operator": "=", "Result Number": 6.27}
{"Test Smiles": "CC(=O)Nc1cn2cc(-c3cc(NC(=O)c4ccc(CN5CCN(C)CC5)c(C(F)(F)F)c4)ccc3C)ccc2n1", "Measured Target": "Serine/threonine-protein kinase B-raf (Homo sapiens, UniProt P15056, V600E)", "Result Operator": "=", "Result Number": 6.89}
{"Test Smiles": "CC(=O)Nc1cn2cc(-c3cc(NC(=O)c4cc(C(F)(F)F)ccn4)ccc3C)ccc2n1", "Measured Target": "Serine/threonine-protein kinase B-raf (Homo sapiens, UniProt P15056, V600E)", "Result Operator": "=", "Result Number": 6.11}

----------
target: Mast/stem cell growth factor receptor Kit (Homo sapiens, UniProt P10721)
Sequence (P10721 whole entry): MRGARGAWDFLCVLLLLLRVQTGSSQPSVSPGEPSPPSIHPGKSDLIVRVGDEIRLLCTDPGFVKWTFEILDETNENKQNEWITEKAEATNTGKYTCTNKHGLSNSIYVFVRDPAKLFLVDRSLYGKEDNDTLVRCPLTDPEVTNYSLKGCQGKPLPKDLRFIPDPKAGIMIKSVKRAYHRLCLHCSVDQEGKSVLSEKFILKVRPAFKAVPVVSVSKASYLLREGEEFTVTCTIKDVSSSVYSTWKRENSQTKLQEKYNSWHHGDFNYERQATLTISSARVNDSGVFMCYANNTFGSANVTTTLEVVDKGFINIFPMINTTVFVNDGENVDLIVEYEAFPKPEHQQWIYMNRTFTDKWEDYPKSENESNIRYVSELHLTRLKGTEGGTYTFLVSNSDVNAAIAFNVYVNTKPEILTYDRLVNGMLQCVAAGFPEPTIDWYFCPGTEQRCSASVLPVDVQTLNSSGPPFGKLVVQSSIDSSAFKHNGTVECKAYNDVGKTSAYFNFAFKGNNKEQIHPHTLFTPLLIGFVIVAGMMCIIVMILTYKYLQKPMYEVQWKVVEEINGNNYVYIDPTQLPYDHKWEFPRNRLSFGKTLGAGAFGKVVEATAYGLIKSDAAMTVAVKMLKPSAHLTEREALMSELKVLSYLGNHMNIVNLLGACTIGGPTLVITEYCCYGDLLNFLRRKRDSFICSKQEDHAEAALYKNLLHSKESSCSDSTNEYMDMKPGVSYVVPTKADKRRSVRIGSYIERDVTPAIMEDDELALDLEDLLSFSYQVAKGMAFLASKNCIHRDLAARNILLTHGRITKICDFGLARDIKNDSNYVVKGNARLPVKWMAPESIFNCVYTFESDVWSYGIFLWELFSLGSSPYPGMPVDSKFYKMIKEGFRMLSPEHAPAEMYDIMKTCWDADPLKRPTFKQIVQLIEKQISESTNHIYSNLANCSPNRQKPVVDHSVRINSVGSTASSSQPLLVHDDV
pIC50: −log10 of the molar value.

{"Test Smiles": "CC(=O)Nc1cn2cc(-c3cc(NC(=O)c4cccc(C(F)(F)F)c4)ccc3C)ccc2n1", "pIC50": 7.28}

----------
biological target: Ephrin type-A receptor 4 (Homo sapiens)
Sequence (P54764 whole entry): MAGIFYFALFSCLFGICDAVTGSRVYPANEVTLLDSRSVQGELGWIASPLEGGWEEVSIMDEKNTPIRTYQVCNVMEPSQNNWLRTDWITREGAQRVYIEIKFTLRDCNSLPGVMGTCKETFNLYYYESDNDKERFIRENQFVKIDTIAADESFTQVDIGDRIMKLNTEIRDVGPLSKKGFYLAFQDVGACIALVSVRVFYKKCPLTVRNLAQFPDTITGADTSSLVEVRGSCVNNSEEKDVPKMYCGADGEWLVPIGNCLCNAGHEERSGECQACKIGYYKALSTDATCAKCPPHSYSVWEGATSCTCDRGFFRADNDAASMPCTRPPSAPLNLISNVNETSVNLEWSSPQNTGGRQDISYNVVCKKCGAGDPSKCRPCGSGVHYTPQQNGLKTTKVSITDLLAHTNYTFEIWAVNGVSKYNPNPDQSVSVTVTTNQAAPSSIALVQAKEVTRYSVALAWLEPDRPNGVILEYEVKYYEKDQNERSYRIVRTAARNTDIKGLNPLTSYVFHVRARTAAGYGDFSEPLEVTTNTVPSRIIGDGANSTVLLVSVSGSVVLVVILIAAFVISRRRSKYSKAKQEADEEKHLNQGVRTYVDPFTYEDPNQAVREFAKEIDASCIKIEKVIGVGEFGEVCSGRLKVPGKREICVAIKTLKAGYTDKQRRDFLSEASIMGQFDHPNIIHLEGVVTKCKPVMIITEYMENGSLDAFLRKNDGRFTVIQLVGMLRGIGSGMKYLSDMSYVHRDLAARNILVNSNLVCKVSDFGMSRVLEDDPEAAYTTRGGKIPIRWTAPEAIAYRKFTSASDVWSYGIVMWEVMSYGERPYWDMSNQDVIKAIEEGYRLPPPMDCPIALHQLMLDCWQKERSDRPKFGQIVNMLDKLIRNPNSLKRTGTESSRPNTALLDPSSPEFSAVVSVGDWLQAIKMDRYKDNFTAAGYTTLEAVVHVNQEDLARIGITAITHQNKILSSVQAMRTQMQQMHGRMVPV
pIC50: −log10 of the molar value.
Quantity Kind: pIC50

{"Test Smiles": "CC(=O)Nc1cn2cc(-c3cc(NC(=O)c4cccc(C(F)(F)F)c4)ccc3C)ccc2n1", "Measured Target": "Ephrin type-A receptor 4 (Homo sapiens)", "Result Number": 7.13}

----------
molecular target: Platelet-derived growth factor receptor alpha (Homo sapiens)
Sequence (P16234 whole entry): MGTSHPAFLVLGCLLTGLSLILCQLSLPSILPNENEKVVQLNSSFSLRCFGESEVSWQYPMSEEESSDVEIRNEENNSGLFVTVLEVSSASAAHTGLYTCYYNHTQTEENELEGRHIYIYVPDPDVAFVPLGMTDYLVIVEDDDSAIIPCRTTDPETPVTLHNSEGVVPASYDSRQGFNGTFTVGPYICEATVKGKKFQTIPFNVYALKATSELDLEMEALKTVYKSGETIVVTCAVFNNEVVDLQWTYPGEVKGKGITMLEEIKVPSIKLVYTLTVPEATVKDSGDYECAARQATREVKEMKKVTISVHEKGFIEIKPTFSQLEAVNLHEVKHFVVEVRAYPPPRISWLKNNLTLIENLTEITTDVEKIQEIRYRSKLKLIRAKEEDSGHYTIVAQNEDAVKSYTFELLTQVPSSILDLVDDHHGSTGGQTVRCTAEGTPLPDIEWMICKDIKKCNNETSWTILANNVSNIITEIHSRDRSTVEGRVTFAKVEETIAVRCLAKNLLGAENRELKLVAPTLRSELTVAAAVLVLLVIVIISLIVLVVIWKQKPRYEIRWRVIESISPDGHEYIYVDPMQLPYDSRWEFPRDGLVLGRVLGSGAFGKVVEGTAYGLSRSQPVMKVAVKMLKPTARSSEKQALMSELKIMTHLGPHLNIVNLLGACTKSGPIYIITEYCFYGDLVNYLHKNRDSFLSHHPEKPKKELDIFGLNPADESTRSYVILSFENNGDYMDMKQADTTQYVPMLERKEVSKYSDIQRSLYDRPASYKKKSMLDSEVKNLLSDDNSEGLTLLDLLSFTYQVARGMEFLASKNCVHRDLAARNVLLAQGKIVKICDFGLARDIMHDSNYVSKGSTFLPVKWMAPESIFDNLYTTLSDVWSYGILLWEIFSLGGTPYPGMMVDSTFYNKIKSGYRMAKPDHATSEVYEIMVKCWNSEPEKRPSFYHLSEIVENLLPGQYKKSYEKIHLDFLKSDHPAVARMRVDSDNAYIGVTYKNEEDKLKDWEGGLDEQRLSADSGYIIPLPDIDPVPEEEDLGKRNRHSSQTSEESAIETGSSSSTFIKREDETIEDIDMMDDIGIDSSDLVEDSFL

{"Test Smiles": "CC(=O)Nc1cn2cc(-c3cc(NC(=O)c4cccc(C(F)(F)F)c4)ccc3C)ccc2n1", "IC50": "8 nM"}

----------
experiment: Clearance in mouse at 20 mg/kg, po administered as single dose; assay type: ADME, organism-based; conditions: in vivo
Quantity Kind: CL/F (mL/min/kg)

{"Test Smiles": "CC(=O)Nc1cn2cc(-c3cc(NC(=O)c4cccc(C(F)(F)F)c4)ccc3C)ccc2n1", "Display Unit": "mL/min/kg", "Result Number": 18}

----------
test: Solubility of the compound in PBS at pH 7; format: physicochemical
Quick reference: solubility of the listed items.

{"Test Smiles": "CC(=O)Nc1cn2cc(-c3cc(NC(=O)c4cccc(C(F)(F)F)c4)ccc3C)ccc2n1", "Display Unit": "µM", "Result Operator": "<", "solubility": 0.4}
{"Test Smiles": "CC(=O)Nc1cn2cc(-c3cc(NC(=O)c4ccc(CN5CCN(C)CC5)c(C(F)(F)F)c4)ccc3C)ccc2n1", "Display Unit": "µM", "Result Operator": "=", "solubility": 4.6}
{"Test Smiles": "CC(=O)Nc1cn2cc(-c3cc(NC(=O)c4cc(N5CCN(C)C[C@@H]5C)cc(C(F)(F)F)c4)ccc3C)ccc2n1", "Display Unit": "µM", "Result Operator": "=", "solubility": 122}
